assayed-target: cGAS (Homo sapiens, UniProt Q8N884)
Sequence (Q8N884 whole entry): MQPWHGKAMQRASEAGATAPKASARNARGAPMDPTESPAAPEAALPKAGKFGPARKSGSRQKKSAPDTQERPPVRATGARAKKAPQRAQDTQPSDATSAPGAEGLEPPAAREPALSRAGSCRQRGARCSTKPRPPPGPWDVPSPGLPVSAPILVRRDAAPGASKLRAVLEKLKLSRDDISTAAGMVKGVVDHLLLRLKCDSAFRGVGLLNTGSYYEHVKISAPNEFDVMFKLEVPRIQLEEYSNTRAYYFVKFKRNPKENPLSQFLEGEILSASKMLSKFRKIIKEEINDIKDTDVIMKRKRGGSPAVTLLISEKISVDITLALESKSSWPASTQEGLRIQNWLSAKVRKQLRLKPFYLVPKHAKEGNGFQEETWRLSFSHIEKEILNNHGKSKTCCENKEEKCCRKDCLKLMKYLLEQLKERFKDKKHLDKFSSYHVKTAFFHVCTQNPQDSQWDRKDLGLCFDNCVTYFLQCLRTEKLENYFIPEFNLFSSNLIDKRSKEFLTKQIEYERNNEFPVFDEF
test-method-notes: Transcreener cGAS enzymatic assay (FP)
Format: biochemical
experimental-setup: high ATP and GTP (1 mM) to mimic physiological conditions; read-out: IC50 FP Physiological
IC50 by entry:
parameter: IC50

>  <line-notation>
Cc1nc(N2C[C@@H](CC(=O)Nc3ccccc3F)C[C@H]2C(=O)O)c2oc3ccccc3c2n1

>  <assayed-target>
cGAS (Homo sapiens, UniProt Q8N884)

>  <recorded-measurement>
> 5000 nM

$$$$
>  <line-notation>
C#Cc1ccc(NC(=O)C[C@H]2C[C@@H](C(=O)O)N(c3nc(C)nc4c3oc3ccccc34)C2)cc1

>  <assayed-target>
cGAS (Homo sapiens, UniProt Q8N884)

>  <recorded-measurement>
1000 to 5000 nM

$$$$
>  <line-notation>
Cc1nc(N2C[C@@H](CC(=O)Nc3ccccc3Cl)C[C@H]2C(=O)O)c2oc3ccccc3c2n1

>  <assayed-target>
cGAS (Homo sapiens, UniProt Q8N884)

>  <recorded-measurement>
> 5000 nM

$$$$
>  <line-notation>
Cc1nc(N2C[C@@H](CC(=O)Nc3cccc(Cl)c3)C[C@H]2C(=O)O)c2oc3ccccc3c2n1

>  <assayed-target>
cGAS (Homo sapiens, UniProt Q8N884)

>  <recorded-measurement>
1000 to 5000 nM

$$$$
>  <line-notation>
Cc1nc(N2C[C@@H](CC(=O)Nc3ccc(-c4cccc(O)c4)cc3)C[C@H]2C(=O)O)c2oc3ccccc3c2n1

>  <assayed-target>
cGAS (Homo sapiens, UniProt Q8N884)

>  <recorded-measurement>
< 200 nM

$$$$
>  <line-notation>
Cc1nc(N2C[C@@H](CC(=O)Nc3ccc4cnccc4c3)C[C@H]2C(=O)O)c2oc3ccccc3c2n1

>  <assayed-target>
cGAS (Homo sapiens, UniProt Q8N884)

>  <recorded-measurement>
1000 to 5000 nM

$$$$
>  <line-notation>
Cc1nc(N2C[C@@H](CC(=O)Nc3cccc(-c4cn[nH]c4)c3)C[C@H]2C(=O)O)c2oc3ccccc3c2n1

>  <assayed-target>
cGAS (Homo sapiens, UniProt Q8N884)

>  <recorded-measurement>
200 to 500 nM

$$$$
>  <line-notation>
Cc1nc(N2C[C@@H](CC(=O)Nc3ccc(-c4cccc5[nH]ncc45)cc3)C[C@H]2C(=O)O)c2oc3ccccc3c2n1

>  <assayed-target>
cGAS (Homo sapiens, UniProt Q8N884)

>  <recorded-measurement>
< 200 nM

$$$$
>  <line-notation>
Cc1nc(N2C[C@@H](CC(=O)Nc3ccc(C(F)(F)F)cc3)C[C@H]2C(=O)O)c2oc3ccccc3c2n1

>  <assayed-target>
cGAS (Homo sapiens, UniProt Q8N884)

>  <recorded-measurement>
1000 to 5000 nM

$$$$
>  <line-notation>
Cc1nc(N2C[C@@H](CC(=O)Nc3cccc(-c4c[nH]cn4)c3)C[C@H]2C(=O)O)c2oc3ccccc3c2n1

>  <assayed-target>
cGAS (Homo sapiens, UniProt Q8N884)

>  <recorded-measurement>
500 to 1000 nM

$$$$
>  <line-notation>
Cc1nc(N2C[C@@H](CC(=O)Nc3ccc(F)cc3)C[C@H]2C(=O)O)c2oc3ccccc3c2n1

>  <assayed-target>
cGAS (Homo sapiens, UniProt Q8N884)

>  <recorded-measurement>
1000 to 5000 nM

$$$$
>  <line-notation>
Cc1nc(N2C[C@@H](CC(=O)Nc3cccc(C(F)(F)F)c3)C[C@H]2C(=O)O)c2oc3ccccc3c2n1

>  <assayed-target>
cGAS (Homo sapiens, UniProt Q8N884)

>  <recorded-measurement>
> 5000 nM

$$$$
>  <line-notation>
Cc1nc(N2C[C@@H](CC(=O)Nc3ccc4ccccc4c3)C[C@H]2C(=O)O)c2oc3ccccc3c2n1

>  <assayed-target>
cGAS (Homo sapiens, UniProt Q8N884)

>  <recorded-measurement>
200 to 500 nM

$$$$
>  <line-notation>
Cc1nc(N2C[C@@H](CC(=O)Nc3ccc(-c4ccc5cn[nH]c5c4)cc3)C[C@H]2C(=O)O)c2oc3ccccc3c2n1

>  <assayed-target>
cGAS (Homo sapiens, UniProt Q8N884)

>  <recorded-measurement>
500 to 1000 nM

$$$$
